System: SK-MEL-2
protocol.text: NCI tumour cell line growth inhibition, 48 h
Calls of active or inactive are those of the source. Rule as the data show it: active = GI50 up to about 1.1 µM and inactive = higher.
What GI50 was measured for each of the following?

Which GI50 value belongs to CN1CC(c2ccccc2)N(CCCCN2CC(c3ccccc3)N(C)CC2c2ccccc2)CC1c1ccccc1 (stereo unspecified) ?
30.9 µM (inactive)

Moving on to "O=C(/C=C/c1c(O)ccc2ccccc12)c1ccc2ccccc2c1"
> 100 µM (inactive)

# repeat for Cc1cn(C2CC(SCCO)C(CO)O2)c(=O)[nH]c1=O (stereo unspecified)
> 100 µM (inactive)

Ok, now "C1CNOCCCONCCCNOCCCONC1"
25.1 µM (inactive)

Again, but for "CC1=NN(c2cccc(Cl)c2)C(=N/c2nc3ccccc3s2)/C1=C\c1ccccc1O"
18.9 µM (inactive)

Repeat for the following compound: C=CCOC1(CC=C)C(=O)OC2C(O)COC21O (stereo unspecified)
> 100 µM (inactive)

Now consider "NN=C1/C(=C\c2ccccc2)CCC/C1=C/c1ccccc1" .
36.6 µM (inactive)

Cool, now OCCCc1cc(O)c2c(c1)C(CO)C(c1ccc(O)c(O)c1)O2 (stereo unspecified)
> 100 µM (inactive)

Cool, now O=C(O)C1C2C=CC(O2)C1C(=O)Nc1ccccc1 (stereo unspecified)
> 100 µM (inactive)

Repeat with O=S(=O)(/N=S(/Nc1ccccc1)C(F)(F)Cl)c1ccccc1 (stereo unspecified)
> 100 µM (inactive)

Input "CNS(=O)(=O)NNS(=O)(=O)c1ccc2ccccc2c1"
> 100 µM (inactive)

Also "C=CC[C@H]1[C@H](O[Si](C)(C)C(C)(C)C)C=CC(=O)[C@@H]1CC(=O)N(Cc1ccccc1)Cc1ccccc1" ?
14.8 µM (inactive)

// query: "CC1=NN(c2nc(N)nc(NS(=O)(=O)c3cc(C)c(Cl)cc3S)n2)C(C)(C)C1"
> 10 µM (inactive)

Subsequent entry: "C=C[C@H]1CN2CC[C@H]1C[C@@H]2[C@@H](O)c1ccnc2ccccc12"
> 100 µM (inactive)

Can you handle "CC(C)CCC[C@@H](C)[C@H]1CC[C@H]2[C@@H]3CC[C@H]4C[C@@H](CCC=C(c5cc(Cl)c(O)c(C(=O)O)c5)c5cc(Cl)c(O)c(C(=O)O)c5)CC[C@]4(C)[C@H]3CC[C@]12C" next?
> 100 µM (inactive)

Continue with "COc1cc(-c2ccc(/N=N/c3c(S(=O)(=O)O)cc4cc(S(=O)(=O)O)cc(N)c4c3O)c(OC)c2)ccc1/N=N/c1c(S(=O)(=O)O)cc2cc(S(=O)(=O)O)cc(N)c2c1O"
> 100 µM (inactive)
